target: HLA A*6802 (Homo sapiens, UniProt P04439, A269V/D140Y/D185E/E176V/E277Q/E87N/F33Y/G231S/I121R/I166T/I218V/L180W/L300P/L318F/N151K/P208A/P217A/Q86R/R138H/R169H/S129P/T345S/V36M); assay type: binding
With a cut-off of 0.06, any Normalized average relative binding affinity (ARB), HLA A*6802 strictly below it is called met; any Normalized average relative binding affinity (ARB), HLA A*6802 meeting it or above is called not met.

The following sequences have reported results that may help.
In [3]: df
Out[3]:
         orderedresidues  assignedcategory
0  WXXXXXXXX [3064.0019]           not met
1  XXVXXXXXX [3064.0058]           not met
2  IXXXXXXXX [3064.0008]           not met
3  XXCXXXXXX [3064.0042]           not met
4  XKXXXXXXX [3064.0029]               met

Please state whether Normalized average relative binding affinity (ARB), HLA A*6802 is below 0.06 for XYXXXXXXX [3064.0040]
met

XXTXXXXXX [3064.0057] , same question.
not met

XWXXXXXXX [3064.0039] , same question.
met

AXXXXXXXX [3064.0001] , same question.
met

XXXCXXXXX [3064.0062] , same question.
not met

---

biological target: HLA B*5401 (Homo sapiens, UniProt P01889, A329T/C349S/D138N/D201E/E176V/E187T/E204Q/E69G/I76V/K202T/L119W/R155S/R180L/S121T/S35A/S48A/V127L/V306I/V36M/Y140L); format: binding
reportedProperty: Normalized average relative binding affinity (ARB), HLA B*5401
// response body must contain only the number

>>> df
         orderedresidues  recordedresult
0  XSXXXXXXX [3064.0036]           0.050
1  GXXXXXXXX [3064.0006]          0.0071

Now turn to the next sequence.
What Normalized average relative binding affinity (ARB), HLA B*5401 value was documented for this sequence, XGXXXXXXX [3064.0026] ?
0.011

---

target: HLA B*5101 (Homo sapiens, UniProt P01889, A329T/A93T/A95T/C349S/D138N/D201E/D98Y/E187L/E204Q/E69T/G107R/I218V/K202T/L105A/L119W/N104I/Q94N/R106L/R155S/R180L/S101N/S121T/S35A/S48A/V306I/V36M/Y195H/Y91F); assay type: binding
Overview of reported Normalized average relative binding affinity (ARB), HLA B*5101 across a group of sequences:
// response body must contain only the number

Example entries and their recorded answers appear below.
         orderedresidues  recordedresult
0  XXQXXXXXX [3064.0054]            0.20
1  SXXXXXXXX [3064.0016]           0.051

Now turn to the next sequence.
What Normalized average relative binding affinity (ARB), HLA B*5101 value was documented for this sequence, XWXXXXXXX [3064.0039] ?
0.050

---

molecular target: HLA B*5801 (Homo sapiens, UniProt P01889, A329T/C349S/D201E/D98Y/E176V/E187L/E204Q/E69T/G107R/I218V/I90N/K202T/L105A/L119I/N104I/N87E/Q89R/Q94S/R106L/R155S/R180L/R86G/S101N/S121R/S35A/S48A/T118I/V127L/V306I/V36M/Y140S/Y91M); assay type: binding
Threshold check on Normalized average relative binding affinity(ARB): at or above 0.1 gives Criterion met, strictly below gives Criterion not met.

The following sequences have reported results that may help.
In [3]: df
Out[3]:
         orderedresidues   assignedcategory
0  XXXXRXXXX [3064.0095]      Criterion met
1  XXXXXCXXX [3064.0102]      Criterion met
2  XXXXNXXXX [3064.0092]      Criterion met
3  XXXXMXXXX [3064.0091]  Criterion not met
4  XXXXXIXXX [3064.0108]      Criterion met

Does Normalized average relative binding affinity(ARB) meet or surpass 0.1 for XXXKXXXXX [3064.0069] ?
Criterion met

---

Overview of reported IC50 across a group of compounds:
target: HLA B*1501 (Homo sapiens, UniProt P01889, A329T/A93T/A95T/C349S/D201E/D98Y/E187L/E204Q/E69M/E70A/K202T/N87E/Q94N/R155S/R180W/S121R/S35A/S48A/V306I/V36M/Y140S/Y91S); test: biochemical
Where a SMILES comes first, the peptide text is derived from it.
Please reply with the bare figure in nM and do not write the unit itself.

Example entries and their recorded answers appear below.
compound	IC50 [nM]
CC[C@H](C)[C@H](NC(=O)[C@H](CCSC)NC(=O)[C@@H](N)CCSC)C(=O)N[C@@H](CC(=O)O)C(=O)N[C@@H](CC(=O)O)C(=O)N[C@@H](Cc1ccccc1)C(=O)NCC(=O)N[C@H](C(=O)N[C@@H](C)C(=O)O)[C@@H](C)O [3102.0898] (H-MMIDDFGTA-OH)	7.6
CC(C)[C@H](NC(=O)[C@H](Cc1ccccc1)NC(=O)CNC(=O)[C@H](Cc1c[nH]cn1)NC(=O)[C@H](CC(N)=O)NC(=O)[C@H](CCC(N)=O)NC(=O)[C@@H](N)Cc1ccc(O)cc1)C(=O)N[C@@H](CO)C(=O)N[C@@H](Cc1ccccc1)C(=O)O [3102.1231] (H-YQNHGFVSF-OH)	0.17

Now turn to the next compound.
What IC50 value was documented for this compound, CC[C@H](C)[C@H](NC(=O)[C@H](CC(C)C)NC(=O)[C@@H](N)CO)C(=O)N[C@@H](Cc1ccc(O)cc1)C(=O)N[C@@H](CC(C)C)C(=O)N[C@@H](CS)C(=O)N[C@H](C(=O)N[C@@H](Cc1ccccc1)C(=O)N[C@@H](CCSC)C(=O)O)[C@@H](C)O [3102.1017] (H-SLIYLCTFM-OH) ?
4.5

---

target: HLA B*0801 (Homo sapiens, UniProt P01889, A93T/A95T/D138N/E176V/E187T/K202T/Q94N/R180D/S35A/V36M/Y33D/Y91F); experiment: biochemical
Where a SMILES comes first, the peptide text is derived from it.
Overview of reported IC50 across a group of molecules:
Please reply with the bare figure in nM and do not write the unit itself.

molecule	reportedProperty	recordedResult
CC[C@H](C)[C@H](NC(=O)[C@@H]1CCCN1C(=O)[C@H](CCCNC(=N)N)NC(=O)[C@H](CCCNC(=N)N)NC(=O)[C@H](CCC(=O)O)NC(=O)[C@H](CCCCN)NC(=O)[C@H](CCSC)NC(=O)[C@@H](N)[C@@H](C)O)C(=O)N[C@@H](CC(C)C)C(=O)O [3102.0600] (H-TMKERRPIL-OH)	IC50	1.8
CC[C@H](C)[C@H](NC(=O)[C@H](CC(C)C)NC(=O)[C@@H](N)CO)C(=O)N1CCC[C@H]1C(=O)N[C@@H](CCCNC(=N)N)C(=O)N[C@@H](CC(C)C)C(=O)N[C@H](C(=O)N[C@@H](CC(=O)O)C(=O)N[C@@H](Cc1ccccc1)C(=O)O)C(C)C [3102.0730] (H-SLIPRLVDF-OH)	IC50	13
CC[C@H](C)[C@H](NC(=O)[C@H](CCCNC(=N)N)NC(=O)[C@H](Cc1ccc(O)cc1)NC(=O)[C@H](CCSC)NC(=O)[C@H](CO)NC(=O)[C@@H](N)CCCNC(=N)N)C(=O)N1CCC[C@H]1C(=O)N1CCC[C@H]1C(=O)N[C@@H](Cc1ccccc1)C(=O)O [3102.0766] (H-RSMYRIPPF-OH)	IC50	158

Now turn to the next molecule.
What IC50 value was documented for this molecule, CC[C@H](C)[C@H](NC(=O)[C@H](CCCCN)NC(=O)[C@@H]1CCCN1C(=O)[C@H](CCCNC(=N)N)NC(=O)[C@@H](NC(=O)[C@@H](N)CC(C)C)[C@@H](C)CC)C(=O)N[C@@H](CC(C)C)C(=O)N[C@@H](CO)C(=O)N[C@@H](CCSC)C(=O)O [3102.0983] (H-LIRPKILSM-OH) ?
0.55

---

molecular target: HLA B*0801 (Homo sapiens, UniProt P01889, A93T/A95T/D138N/E176V/E187T/K202T/Q94N/R180D/S35A/V36M/Y33D/Y91F); test: biochemical
Where a SMILES comes first, the peptide text is derived from it.
Overview of reported IC50 across a group of molecules:
Please reply with the bare figure in nM and do not write the unit itself.

molecule	reportedProperty	resultUnit	recordedResult
CC[C@H](C)[C@H](NC(=O)[C@H](CCSC)NC(=O)[C@@H](NC(=O)[C@H](CCCCN)NC(=O)[C@H](CC(C)C)NC(=O)[C@@H](N)CO)[C@@H](C)CC)C(=O)N[C@@H](CCC(N)=O)C(=O)N[C@@H](CO)C(=O)N[C@@H](CCSC)C(=O)O [3102.0631] (H-SLKIMIQSM-OH)	IC50	nM	2.5
CC[C@H](C)[C@H](NC(=O)[C@H](CCCNC(=N)N)NC(=O)[C@H](Cc1ccc(O)cc1)NC(=O)[C@H](CCCCN)NC(=O)[C@H](CC(N)=O)NC(=O)[C@@H](N)CO)C(=O)N[C@@H](CCCCN)C(=O)N[C@@H](CO)C(=O)N[C@H](C(=O)O)C(C)C [3102.0666] (H-SNKYRIKSV-OH)	IC50	nM	2.7
CC(C)C[C@H](NC(=O)[C@@H](NC(=O)[C@H](CC(C)C)NC(=O)[C@H](CCCCN)NC(=O)[C@H](CCCNC(=N)N)NC(=O)[C@H](Cc1ccccc1)NC(=O)[C@H](Cc1ccccc1)NC(=O)[C@@H]1CCCN1C(=O)[C@@H](N)Cc1ccc(O)cc1)C(C)C)C(=O)O [3102.0643] (H-YPFFRKLVL-OH)	IC50	nM	5.9
CC(C)C[C@H](NC(=O)CNC(=O)[C@@H](N)CC(N)=O)C(=O)N[C@H](C(=O)N[C@@H](CCCNC(=N)N)C(=O)N[C@@H](CC(C)C)C(=O)N[C@@H](CC(N)=O)C(=O)N[C@@H](C)C(=O)N[C@@H](Cc1ccccc1)C(=O)O)C(C)C [3102.0603] (H-NGLVRLNAF-OH)	IC50	nM	57

Now turn to the next molecule.
What IC50 value was documented for this molecule, CC[C@H](C)[C@H](NC(=O)[C@@H]1CCCN1C(=O)[C@@H](N)CCC(=O)O)C(=O)N[C@@H](CCCCN)C(=O)N[C@@H](Cc1c[nH]cn1)C(=O)N[C@@H](CCCCN)C(=O)N[C@@H](Cc1ccc(O)cc1)C(=O)N1CCC[C@H]1C(=O)N[C@@H](CC(C)C)C(=O)O [3102.0624] (H-EPIKHKYPL-OH) ?
1.3
